Taken from the supplement of paper PMC10567573.

B1: MLL5 (parent)
chain: DCMGIDRQHIPDTYLCERCQPRNL

Variants of: B1
protocol summary: protein stability index of a GFP-peptide fusion (GPS, HEK-293T) (PSI 1-6); higher = more stable;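 also: lentivirally expressed fusions sorted by FACS into six bins by GFP to DsRed ratio, PSI derived from sequencing read proportions per bin multiplied by bin number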
condition parameters: c terminus: a fixed tail appended
// label = met if protein stability index is not less than 3, otherwise not met

mutant name	qualitative label
H9D	not met
H9V	not met
T13C	not met
Q20F	not met
G4P	not met
I5C	met
Y14F	not met
Q8A	not met
E17H	not met
C16P	met
Q8I	not met
M3H	not met
Q8L	not met
C2Y	not met
G4H	met
R18F	not met
N23Q	not met
L24W	not met
P11L	not met
G4W	not met
N23Y	not met
D12Y	not met
C16T	met
R18D	met
R7S	met
P21L	met
R22S	met
G4E	met
P11V	not met
C16S	met
L24P	not met
L15V	met
T13Y	not met
E17V	not met
R18N	met
H9C	met
P21M	met
G4Y	not met
M3I	not met
D6H	met
L24N	met
Y14V	met
G4Q	not met
R22E	met
C2E	met
D1L	not met
Q8E	not met
C2I	not met
N23W	not met
Y14C	met
P21I	not met
L24F	not met
P21W	not met
Q20T	met
R7H	met
H9T	met
T13W	not met
D6M	not met
C19L	met
C19M	not met
C19Q	met
T13G	met
